These measurements were taken from ChEMBL document CHEMBL3885881.

Organism: Rattus norvegicus
measurementNotes: DrugMatrix - Regimen: Daily Repeat
Format: toxicity, organism-based, Sprague-Dawley
Parameters: regimen Daily Repeat, gender Male, age 6-8 weeks
measurementConditions: in vivo, po, 0 mg/kg, 120 h, tissue Plasma, route oral GAVAGE, dose level Control, time 5 day, […]
propertyMeasured: BLOOD UREA NITROGEN (mg/dL)
Quick note: give the figure in mg/dL, leave out the unit.

Worked examples, 3 compounds total:
compound="COc1ccc2c(c1)c(CC(=O)OCC(=O)O)c(C)n2C(=O)c1ccc(Cl)cc1 [ACEMETACIN]" measvalue=15.67
compound="CCCC[C@@H](CC)COC(=O)c1ccccc1C(=O)OC[C@@H](CC)CCCC [BIS(2-ETHYLHEXYL)PHTHALATE]" measvalue=14
compound="O=[N+]([O-])c1cc([As](=O)(O)O)ccc1O [ROXARSONE]" measvalue=6

compound CC(C)n1c(/C=C/C(O)CC(O)CC(=O)O)c(-c2ccc(F)cc2)c2ccccc21 (stereo not given) [FLUVASTATIN] , BLOOD UREA NITROGEN observed: 14.75

compound CN(C)CCCC1(c2ccc(F)cc2)OCc2cc(C#N)ccc21 (stereo not given) [CITALOPRAM] , BLOOD UREA NITROGEN observed: 13.67

compound CSc1ccc2c(c1)N(CCC1CCCCN1C)c1ccccc1S2 (stereo not given) [THIORIDAZINE] , BLOOD UREA NITROGEN observed: 14.33

compound Oc1c(Cl)cc(Cl)cc1Sc1cc(Cl)cc(Cl)c1O [BITHIONOL] , BLOOD UREA NITROGEN observed: 14.75

====

Species: Rattus norvegicus
measurementNotes: DrugMatrix - Regimen: Daily Repeat
Assay type: toxicity, organism-based, Sprague-Dawley
Set-up: regimen Daily Repeat, gender Male, age 6-8 weeks
measurementConditions: in vivo, po, 10 mg/kg, 120 h, tissue Plasma, route oral GAVAGE, dose level Low, time 5 day, vehicle .5 % CMC
propertyMeasured: LACTATE DEHYDROGENASE (u/L)
Quick note: give the figure in u/L, leave out the unit.

Worked examples, 3 molecules total:
molecule="O=C1CN=C(c2ccccc2)c2cc([N+](=O)[O-])ccc2N1 [NITRAZEPAM]" propertymeasured="LACTATE DEHYDROGENASE" measvalue=109.33
molecule="NS(=O)(=O)c1cc2c(cc1Cl)NCNS2(=O)=O [HYDROCHLOROTHIAZIDE]" propertymeasured="LACTATE DEHYDROGENASE" measvalue=281.67
molecule="CC(=O)O[C@]1(C(C)=O)CC[C@H]2[C@@H]3C=C(Cl)C4=CC(=O)CC[C@]4(C)[C@H]3CC[C@@]21C [CHLORMADINONE ACETATE]" propertymeasured="LACTATE DEHYDROGENASE" measvalue=269

Moving on to the next molecule.
molecule COc1c(C)c2c(c(O)c1C/C=C(\C)CCC(=O)OCCN1CCOCC1)C(=O)OC2 [MYCOPHENOLATE MOFETIL] , LACTATE DEHYDROGENASE observed: 409.33

====

Organism: Rattus norvegicus
measurementNotes: DrugMatrix - Regimen: Daily Repeat
Assay type: toxicity, organism-based, Sprague-Dawley
Set-up: regimen Daily Repeat, gender Male, age 6-8 weeks
measurementConditions: in vivo, po, 0 mg/kg, 120 h, tissue Blood, route oral GAVAGE, dose level Control, time 5 day, vehicle .5 % CMC
propertyMeasured: NUCLEATED RED BLOOD CELLS

Worked examples, 5 compounds total:
compound="CCOC(=O)OC(C)OC1=C(C(=O)Nc2ccccn2)N(C)S(=O)(=O)c2ccccc21 (configuration not stated)" propertymeasured="NUCLEATED RED BLOOD CELLS" measvalue="0 /100WBC"
compound=CC(/C=C1\SC(=S)N(CC(=O)O)C1=O)=C\c1ccccc1 propertymeasured="NUCLEATED RED BLOOD CELLS" measvalue="0 /100WBC"
compound=CC(C)[C@H](N)C(=O)OCCOCn1cnc2c(=O)[nH]c(N)nc21 propertymeasured="NUCLEATED RED BLOOD CELLS" measvalue="0 /100WBC"
compound=Brc1ccccc1 propertymeasured="NUCLEATED RED BLOOD CELLS" measvalue="0 /100WBC"
compound=COC(=O)c1ccc(O)cc1 propertymeasured="NUCLEATED RED BLOOD CELLS" measvalue="0 /100WBC"

compound CCC[C@@H]1C[C@@H](C(=O)N[C@@H]([C@H]2O[C@H](SC)[C@H](O)[C@@H](O)[C@H]2O)[C@@H](C)O)N(C)C1 , NUCLEATED RED BLOOD CELLS observed: 0.33 /100WBC

compound CCc1ccc(C(=O)C(C)CN2CCCCC2)cc1 (configuration not stated) , NUCLEATED RED BLOOD CELLS observed: 0.17 /100WBC

compound Cc1c(-c2ccccc2)oc2c(C(=O)OCCN3CCCCC3)cccc2c1=O [FLAVOXATE] , NUCLEATED RED BLOOD CELLS observed: 0.33 /100WBC

compound O=c1[nH]cc(F)c(=O)[nH]1 , NUCLEATED RED BLOOD CELLS observed: 0 /100WBC

compound CN1CCC[C@@H]1CCO[C@](C)(c1ccccc1)c1ccc(Cl)cc1 , NUCLEATED RED BLOOD CELLS observed: 0 /100WBC

compound CC1(C)[C@H]2CC[C@]1(C)C(=O)C2 [(-)-CAMPHOR] , NUCLEATED RED BLOOD CELLS observed: 0.17 /100WBC

compound COc1c(C)c2c(c(O)c1C/C=C(\C)CCC(=O)OCCN1CCOCC1)C(=O)OC2 [MYCOPHENOLATE MOFETIL] , NUCLEATED RED BLOOD CELLS observed: 0 /100WBC
